- subjectOfTest: Serine/threonine-protein kinase PknB (Mycobacterium tuberculosis, UniProt P9WI81)
- Sequence (P9WI81 whole entry): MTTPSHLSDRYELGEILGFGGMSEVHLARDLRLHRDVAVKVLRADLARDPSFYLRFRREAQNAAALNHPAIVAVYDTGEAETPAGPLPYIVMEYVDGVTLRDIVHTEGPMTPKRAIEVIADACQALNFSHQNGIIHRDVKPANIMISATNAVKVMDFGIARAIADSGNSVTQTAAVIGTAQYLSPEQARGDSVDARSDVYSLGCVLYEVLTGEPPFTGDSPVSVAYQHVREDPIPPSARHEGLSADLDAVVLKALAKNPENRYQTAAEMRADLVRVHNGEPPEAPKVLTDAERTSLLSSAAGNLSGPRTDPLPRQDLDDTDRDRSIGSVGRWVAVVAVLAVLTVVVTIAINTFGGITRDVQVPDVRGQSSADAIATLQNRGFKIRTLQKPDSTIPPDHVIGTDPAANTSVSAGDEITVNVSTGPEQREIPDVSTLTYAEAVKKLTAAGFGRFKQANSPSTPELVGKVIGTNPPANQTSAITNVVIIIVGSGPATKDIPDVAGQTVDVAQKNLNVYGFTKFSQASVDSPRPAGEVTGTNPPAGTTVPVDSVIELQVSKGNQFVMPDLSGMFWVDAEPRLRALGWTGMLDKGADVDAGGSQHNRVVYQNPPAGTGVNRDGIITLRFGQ
- experiment: Binding affinity to Mycobacterium tuberculosis recombinant N-terminal His-tagged PknB (1 to 331 residues) expressed in Escherichia coli DH5alpha cells by microscale thermophoresis analysis
readoutType: Kd

Examples with their reported Kd follow.
{"mol": "CN1CCN(c2ccc(Nc3nccc(-c4ccc(F)cc4)n3)cc2C(F)(F)F)CC1", "observedResult": "3000 nM"}
{"mol": "CN1CCN(c2ccc(Nc3nccc(-c4cccc(F)c4)n3)cc2C(F)(F)F)CC1", "observedResult": "710 nM"}
{"mol": "Cc1ccc(-c2ccnc(Nc3ccc(N4CCN(C)CC4)c(C(F)(F)F)c3)n2)cc1", "observedResult": "30 nM"}

Working through the 4 molecules below one at a time, give Kd for each.
1. CN1CCN(c2ccc(Nc3nccc(-c4cccc(C#N)c4)n3)cc2C(F)(F)F)CC1
2. CN1CCN(c2ccc(Nc3nccc(-c4cccc(Cl)c4)n3)cc2C(F)(F)F)CC1
3. CN1CCN(c2ccc(Nc3nccc(-c4ccccc4)n3)cc2C(F)(F)F)CC1
4. CNc1cc(-c2ccnc(Nc3ccc(N4CCN(C)CC4)c(C(F)(F)F)c3)n2)ccn1

["73 nM", "340 nM", "1200 nM", "920 nM"]

Working through the 2 molecules below one at a time, give Kd for each.
1. CN1CCN(c2ccc(Nc3nccc(-c4ccnc(NCc5ccccc5)c4)n3)cc2C(F)(F)F)CC1
2. CN1CCN(c2ccc(Nc3nccc(-c4cccc([N+](=O)[O-])c4)n3)cc2C(F)(F)F)CC1

["2100 nM", "34 nM"]

----------
- experiment: Lipophilicity, logD of the compound in octanol and phosphate buffer at pH 7.4 at 66.7 uM by LC-MS/MS analysis
- Type: physicochemical
- reportedConditions: octanol/water, pH 7.4, 66.7 µM
Give logD for every item shown.
One number for each entry.

{"mol": "CN1CCN(c2ccc(Nc3nccc(-c4cccnc4)n3)cc2C(F)(F)F)CC1", "logD": 3.53}

Working through the 3 molecules below one at a time, give logD for each.
1. CN1CCN(c2ccc(Nc3nccc(-c4cccc([N+](=O)[O-])c4)n3)cc2C(F)(F)F)CC1
2. CN1CCN(c2ccc(Nc3nccc(-c4ccccc4)n3)cc2C(F)(F)F)CC1
3. CN1CCN(c2ccc(Nc3nccc(-c4ccnc(Cl)c4)n3)cc2C(F)(F)F)CC1

1: 4.5; 2: 4.8; 3: 4.3

----------
- subjectOfTest: Cyclin-dependent kinase 2/cyclin A (Homo sapiens, UniProt P24941)
- experiment: Inhibition of human Cdk2/Cyclin A using Myelin basic protein as substrate by ATP competitive assay
readoutType: pIC50
Give bare numbers, as −log10 of the molar value.

Examples with their reported pIC50 follow.
{"mol": "CN1CCN(c2ccc(Nc3nccc(-c4cccnc4)n3)cc2C(F)(F)F)CC1", "readoutType": "pIC50", "observedResult": 5.03}
{"mol": "CN1CCN(c2ccc(Nc3nccc(-c4ccc([N+](=O)[O-])cc4)n3)cc2C(F)(F)F)CC1", "readoutType": "pIC50", "observedResult": 6.74}
{"mol": "CN1CCN(c2ccc(Nc3nccc(-c4cccc(F)c4)n3)cc2C(F)(F)F)CC1", "readoutType": "pIC50", "observedResult": 4.62}
{"mol": "CN1CCN(c2ccc(Nc3nccc(-c4ccc(F)cc4)n3)cc2C(F)(F)F)CC1", "readoutType": "pIC50", "observedResult": 4.92}
{"mol": "CN1CCN(c2ccc(Nc3nccc(-c4ccnc(NCc5ccccc5)c4)n3)cc2C(F)(F)F)CC1", "readoutType": "pIC50", "observedResult": 5.14}
{"mol": "CN1CCN(c2ccc(Nc3nccc(-c4ccnc(Cl)c4)n3)cc2C(F)(F)F)CC1", "readoutType": "pIC50", "observedResult": 5.14}
{"mol": "COc1cccc(-c2ccnc(Nc3ccc(N4CCN(C)CC4)c(C(F)(F)F)c3)n2)c1", "readoutType": "pIC50", "observedResult": 5.00}
{"mol": "CN1CCN(c2ccc(Nc3nccc(-c4ccc(C#N)cc4)n3)cc2C(F)(F)F)CC1", "readoutType": "pIC50", "observedResult": 4.89}

The record that follows has no pIC50 shown yet.
Hello, please tell me recorded pIC50 for this one: CNc1cc(-c2ccnc(Nc3ccc(N4CCN(C)CC4)c(C(F)(F)F)c3)n2)ccn1
4.41

----------
- experiment: Lipophilicity, logD of the compound in octanol and phosphate buffer at pH 7.4 at 66.7 uM by LC-MS/MS analysis
- Type: physicochemical
- reportedConditions: octanol/water, pH 7.4, 66.7 µM
Give logD for every item shown.

{"mol": "Cc1ccc(-c2ccnc(Nc3ccc(N4CCN(C)CC4)c(C(F)(F)F)c3)n2)cc1", "logD": "> 5.85"}
{"mol": "CN1CCN(c2ccc(Nc3nccc(-c4ccc5ccccc5c4)n3)cc2C(F)(F)F)CC1", "logD": "> 5.7"}

The record that follows has no logD shown yet.
Hello, please tell me recorded logD for this one: CN1CCN(c2ccc(Nc3nccc(-c4cccc(Cl)c4)n3)cc2C(F)(F)F)CC1
> 6
